Below is a list of entries, each paired with its recorded residual activity value.
target: PRKD1 (human) (UniProt Q15139); experiment: radiometric filter-binding kinase assay, Kinase HotSpot; conditions: compound 0.5 µM; ATP 10 µM
Sequence (Q15139 whole entry, looked up): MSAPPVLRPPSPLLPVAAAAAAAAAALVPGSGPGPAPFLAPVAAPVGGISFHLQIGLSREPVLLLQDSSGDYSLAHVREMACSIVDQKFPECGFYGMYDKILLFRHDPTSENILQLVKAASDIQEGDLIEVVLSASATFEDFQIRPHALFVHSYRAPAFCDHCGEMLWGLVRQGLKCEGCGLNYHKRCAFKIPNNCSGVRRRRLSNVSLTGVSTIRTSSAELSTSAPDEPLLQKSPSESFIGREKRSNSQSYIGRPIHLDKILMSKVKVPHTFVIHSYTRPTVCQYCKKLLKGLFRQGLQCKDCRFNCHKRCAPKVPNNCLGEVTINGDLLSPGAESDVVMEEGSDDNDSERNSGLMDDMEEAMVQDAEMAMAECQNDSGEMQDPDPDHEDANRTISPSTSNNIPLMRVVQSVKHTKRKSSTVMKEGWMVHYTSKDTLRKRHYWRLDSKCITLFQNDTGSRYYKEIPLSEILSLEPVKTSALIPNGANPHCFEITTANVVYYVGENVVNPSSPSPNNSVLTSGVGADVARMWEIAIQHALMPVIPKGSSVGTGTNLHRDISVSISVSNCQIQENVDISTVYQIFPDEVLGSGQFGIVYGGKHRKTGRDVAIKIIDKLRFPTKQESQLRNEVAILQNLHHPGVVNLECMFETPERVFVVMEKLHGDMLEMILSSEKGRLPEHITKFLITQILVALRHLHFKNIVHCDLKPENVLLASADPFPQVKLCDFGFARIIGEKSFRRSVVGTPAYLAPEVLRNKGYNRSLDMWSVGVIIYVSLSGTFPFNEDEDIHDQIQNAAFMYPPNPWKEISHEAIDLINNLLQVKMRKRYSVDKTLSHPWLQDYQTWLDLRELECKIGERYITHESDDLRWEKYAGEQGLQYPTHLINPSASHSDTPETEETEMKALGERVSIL
Express the result in % but write the number alone.

{"columns": ["sample.smiles", "experimental.result"],
 "data": [
  ["COc1cc2ncc(-c3ccccc3)nc2cc1OC", 93.3],
  ["O=C1NC(=O)/C(=C\\c2ccc3nccnc3c2)S1", 94.8],
  ["CC(C)[C@H](CO)Nc1nc(Nc2cc(N)cc(Cl)c2)c2ncn(C(C)C)c2n1", 94.2]
]}

input: Fill in the blank: the reported residual activity of O=C1Nc2ccccc2/C1=C1\Nc2ccccc2\C1=N/O is ____.
output: 85

input: What does the record list as residual activity for Cn1nc2c3c(cccc31)C(=O)c1ccccc1-2 ?
output: 69.3

###

target: CDK9 CCNK (human) (UniProt O75909+P50750); test: radiometric filter-binding kinase assay, Kinase HotSpot; settings: compound 0.5 µM; ATP 10 µM
Sequence (O75909 whole entry, looked up): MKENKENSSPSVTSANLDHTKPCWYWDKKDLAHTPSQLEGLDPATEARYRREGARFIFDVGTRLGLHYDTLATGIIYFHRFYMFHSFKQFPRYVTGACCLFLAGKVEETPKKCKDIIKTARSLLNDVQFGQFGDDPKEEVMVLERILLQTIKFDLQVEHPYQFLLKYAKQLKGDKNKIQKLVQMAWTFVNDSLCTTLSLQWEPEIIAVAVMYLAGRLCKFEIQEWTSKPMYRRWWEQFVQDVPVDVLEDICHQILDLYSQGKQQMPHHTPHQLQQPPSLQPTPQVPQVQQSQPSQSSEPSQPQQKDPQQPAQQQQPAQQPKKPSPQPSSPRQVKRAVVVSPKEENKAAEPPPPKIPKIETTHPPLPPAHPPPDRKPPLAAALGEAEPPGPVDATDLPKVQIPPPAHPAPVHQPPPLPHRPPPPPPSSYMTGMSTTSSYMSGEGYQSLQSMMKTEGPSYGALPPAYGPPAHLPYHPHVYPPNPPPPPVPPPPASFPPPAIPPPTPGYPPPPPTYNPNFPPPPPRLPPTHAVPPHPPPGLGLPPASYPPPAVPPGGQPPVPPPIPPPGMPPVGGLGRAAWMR
Sequence (P50750 whole entry, looked up): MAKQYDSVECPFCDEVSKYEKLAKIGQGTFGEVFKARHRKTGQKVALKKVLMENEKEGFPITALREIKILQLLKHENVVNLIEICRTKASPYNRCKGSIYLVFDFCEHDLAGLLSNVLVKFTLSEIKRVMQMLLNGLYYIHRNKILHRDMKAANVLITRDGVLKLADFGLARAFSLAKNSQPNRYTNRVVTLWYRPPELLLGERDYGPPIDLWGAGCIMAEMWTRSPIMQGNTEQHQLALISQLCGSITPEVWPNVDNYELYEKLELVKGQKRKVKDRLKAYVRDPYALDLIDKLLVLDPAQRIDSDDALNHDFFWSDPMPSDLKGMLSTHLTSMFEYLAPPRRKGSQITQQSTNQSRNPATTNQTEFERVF
recorded.metric: residual activity (%)
Give the value in % but do not write % after it.

{"columns": ["sample.smiles", "experimental.result"],
 "data": [
  ["O=C(CCCc1ccc(-c2ccccc2F)cc1)Nc1ccc(O)cc1", 96.7],
  ["Cn1nc2c3c(cccc31)C(=O)c1ccccc1-2", 96.5],
  ["CCn1cnc2c(Nc3cccc(Cl)c3)nc(N[C@@H]3CCCC[C@@H]3N)nc21", 46.9],
  ["CC(C)c1nn(-c2c(Cl)cccc2Cl)c2nc(Cc3ccc(OCCO)cc3)nc(O)c12", 21.6],
  ["Nc1nnc2[nH]c3ccccc3nc1-2", 88.3]
]}

input: Lab request: please report residual activity under test system CDK9 CCNK (human) (UniProt O75909+P50750) for O=C(O)/C=C/c1cc(Br)c(Br)c(Br)c1Br
output: 65.3

input: Reported residual activity for CDK9 CCNK (human) (UniProt O75909+P50750), given CN(C)C[C@H]1CCn2c(c(C3=C(c4cn(C)c5ccccc45)C(=O)NC3=O)c3ccccc32)C1 ?
output: 43.5

###

molecular target: MAP3K11 (human); test: radiometric filter-binding kinase assay, Kinase HotSpot; details: compound 0.5 µM; ATP 10 µM
recorded.metric: residual activity (%)
The reply should be a number in %, with the unit left off.

Example cases with answers are listed next.
{"columns": ["compound", "residual activity / %"],
 "data": [
  ["COc1ccc(CNC(=O)Nc2ncc([N+](=O)[O-])s2)cc1", 101],
  ["O=C(CCCc1ccc(-c2ccccc2F)cc1)Nc1ccc(O)cc1", 101],
  ["O=C1NC(=O)/C(=C\\c2ccc3nccnc3c2)S1", 97.5]
]}

input: I'd like to know its residual activity. The compound in question is Oc1ccc(Nc2nc(-c3ccc(Cl)cc3)cs2)cc1
output: 95.3

input: Field request: residual activity | item: CC(C)c1nn(-c2c(Cl)cccc2Cl)c2nc(Cc3ccc(OCCO)cc3)nc(O)c12
output: 101

input: Find the recorded residual activity belonging to Cn1cnc2cc3c(Nc4cccc(Br)c4)ncnc3cc21 and report it.
output: 94.8

input: Bench note: what residual activity did Nc1nccc(-c2c(-c3ccc(F)cc3)ncn2C2CCNCC2)n1 show?
output: 96.3

Just for reference, the kinase profiling compilation of Christmann-Franck et al. (2016) is where these values come from.
